Molecular target: ATPase family AAA domain-containing protein 2 (Homo sapiens, UniProt Q6PL18)
Sequence (Q6PL18 whole entry, the tested form may be a part): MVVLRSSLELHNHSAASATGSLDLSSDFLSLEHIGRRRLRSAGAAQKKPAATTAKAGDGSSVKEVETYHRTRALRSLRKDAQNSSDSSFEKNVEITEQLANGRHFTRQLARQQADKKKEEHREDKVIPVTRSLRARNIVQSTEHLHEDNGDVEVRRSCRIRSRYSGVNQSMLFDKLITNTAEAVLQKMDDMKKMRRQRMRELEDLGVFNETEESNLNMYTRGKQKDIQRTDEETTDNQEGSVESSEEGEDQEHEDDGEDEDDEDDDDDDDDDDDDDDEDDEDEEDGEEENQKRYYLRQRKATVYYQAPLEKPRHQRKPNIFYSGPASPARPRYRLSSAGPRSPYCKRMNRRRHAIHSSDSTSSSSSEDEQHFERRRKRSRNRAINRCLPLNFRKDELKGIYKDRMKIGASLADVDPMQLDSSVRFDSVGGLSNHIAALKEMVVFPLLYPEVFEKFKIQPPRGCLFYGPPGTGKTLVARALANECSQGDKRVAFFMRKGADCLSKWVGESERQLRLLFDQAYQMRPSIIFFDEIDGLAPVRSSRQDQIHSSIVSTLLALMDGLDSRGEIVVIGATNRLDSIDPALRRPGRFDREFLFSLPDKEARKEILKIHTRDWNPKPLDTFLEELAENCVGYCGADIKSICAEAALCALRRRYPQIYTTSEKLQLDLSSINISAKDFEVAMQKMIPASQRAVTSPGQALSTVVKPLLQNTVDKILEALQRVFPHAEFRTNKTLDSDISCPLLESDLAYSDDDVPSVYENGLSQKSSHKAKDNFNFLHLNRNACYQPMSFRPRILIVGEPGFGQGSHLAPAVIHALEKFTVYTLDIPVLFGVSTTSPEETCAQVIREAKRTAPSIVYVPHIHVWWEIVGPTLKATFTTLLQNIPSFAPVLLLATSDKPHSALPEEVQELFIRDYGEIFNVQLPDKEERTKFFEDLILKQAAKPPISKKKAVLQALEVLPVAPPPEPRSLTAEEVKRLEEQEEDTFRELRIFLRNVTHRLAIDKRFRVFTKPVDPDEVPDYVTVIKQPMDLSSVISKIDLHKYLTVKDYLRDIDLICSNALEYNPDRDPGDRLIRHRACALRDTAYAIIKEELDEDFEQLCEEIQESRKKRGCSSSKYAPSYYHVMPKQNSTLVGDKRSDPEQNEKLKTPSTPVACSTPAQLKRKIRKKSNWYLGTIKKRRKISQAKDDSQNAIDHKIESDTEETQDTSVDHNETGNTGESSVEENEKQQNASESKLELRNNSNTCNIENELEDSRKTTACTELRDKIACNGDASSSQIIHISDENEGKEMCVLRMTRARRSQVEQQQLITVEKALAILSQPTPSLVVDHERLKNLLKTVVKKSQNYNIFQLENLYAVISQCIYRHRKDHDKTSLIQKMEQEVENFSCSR
Experiment: Inhibitory activity against ATAD2 (unknown origin) at bromodomain incubated for 180 min by Tr-FRET assay
value type: IC50 (nM)

>>> assay_result("COc1cc(Cl)c(C(=O)N[C@H](CN[C@H]2CC[C@@H](N)CC2)Cc2ccc(C#N)cc2)cc1-c1ccc(CN[C@H](C)c2ccc(C)cc2)o1")
242
